Tested on: Liver
Assay: Drug metabolism in human liver microsomes assessed as covalent binding per mg protein at 10 uM preincubated for 5 mins followed by NADPH addition measured after 30 mins by liquid scintillation counting
Assay type: ADME, microsome
Settings: 0.5 h
READOUT_LABEL: Drug metabolism (pmol)
Express your answer in pmol, writing the number without its unit.

Observe how each entry below is paired with its result.
| SMILES | UNIT_OF_MEASUREMENT | TEST_VALUE |
| --- | --- | --- |
| CN1CCN(c2ccc(Nc3cc(-c4cccc(-n5ncc6cc(C(C)(C)C)cc(F)c6c5=O)c4[14CH2]O)cn(C)c3=O)nc2)CC1 | pmol | 459 |
| CN1CCN(c2ccc(Nc3cc(-c4cccc(-n5ccc6cc(C7CC7)cc(F)c6c5=O)c4CO)cn(C)c3=O)nc2)CC1 | pmol | 294 |
| Cn1cc(-c2cccc(N3CCc4cc(C(C)(C)C)ccc4C3=O)c2[14CH2]O)cc(Nc2ccc(C(=O)N3CCOCC3)cn2)c1=O | pmol | 422 |
| CN(C)c1ccc2c(c1)CCN(c1cccc(-c3cc(Nc4ccc(C(=O)N5CCOCC5)cn4)c(=O)n(C)c3)c1[14CH2]O)C2=O | pmol | 52 |

Query (molecule): Cn1cc(-c2cccc(-n3ncc4cc(C(C)(C)C)cc(F)c4c3=O)c2[14CH2]O)cc(Nc2ccc(S(C)(=O)=O)cn2)c1=O ; field requested: Drug metabolism
386

Query (molecule): Cn1nc(-c2cccc(-n3ncc4cc(C(C)(C)C)cc(F)c4c3=O)c2[14CH2]O)cc(Nc2ccc(C(=O)N3CCOCC3)cn2)c1=O ; field requested: Drug metabolism
26

Query (molecule): Cn1cc(-c2cccc(-n3ncc4cc(C(C)(C)C)cc(F)c4c3=O)c2[14CH2]O)cc(Nc2ccc(C(=O)N3CCOCC3)cn2)c1=O ; field requested: Drug metabolism
294
